Tested on: Mus musculus
protocol_description: Toxicity in mouse S180 cells xenografted in ICR mouse assessed as increase in body weight at 89 umol/kg, ip administered 24 hrs after tumor implantation once daily for 7 consecutive days measured after 24 hrs last post dose
Type: organism-based, CCRF S-180
experimental_parameters: in vivo
result_type: Activity (g)
Give just the number in g; leave the unit off.

// worked examples, Activity included
O=C(O)CNCCc1nc(C(=O)O)cc2c3ccccc3n(Cc3ccccc3)c12	11.34
CC(C)C[C@H](NCCc1nc(C(=O)O)cc2c3ccccc3n(Cc3ccccc3)c12)C(=O)O	9.04
CSCC[C@H](NCCc1nc(C(=O)O)cc2c3ccccc3n(Cc3ccccc3)c12)C(=O)O	9.12
C[C@H](NCCc1nc(C(=O)O)cc2c3ccccc3n(Cc3ccccc3)c12)C(=O)O	12.92
C[C@@H](O)[C@H](NCCc1nc(C(=O)O)cc2c3ccccc3n(Cc3ccccc3)c12)C(=O)O	11.37
N=C(N)NCCC[C@H](NCCc1nc(C(=O)O)cc2c3ccccc3n(Cc3ccccc3)c12)C(=O)O	11.19
O=C(O)c1cc2c3ccccc3n(Cc3ccccc3)c2c(CCN2C(=O)CCC2C(=O)O)n1 (stereo unspecified)	12.24
O=C(O)c1cc2c3ccccc3n(Cc3ccccc3)c2c(CCN[C@@H](Cc2c[nH]c3ccccc23)C(=O)O)n1	11.67
O=C(O)c1cc2c3ccccc3n(Cc3ccccc3)c2c(CCN[C@@H](Cc2c[nH]cn2)C(=O)O)n1	11.87
CC[C@H](C)[C@H](NCCc1nc(C(=O)O)cc2c3ccccc3n(Cc3ccccc3)c12)C(=O)O	13.56

Consider the record given below.
Request: Reported Activity, compound `CC(C)[C@@H](NCCc1nc(C(=O)O)cc2c3ccccc3n(Cc3ccccc3)c12)C(=O)O` : ____
Response: 10.23
